Values compiled from patent US9388149B2.

Recorded IC50, one value per entry.
Test System: CXCR1 receptor (Homo sapiens (Human))
Sequence (P25024 whole entry): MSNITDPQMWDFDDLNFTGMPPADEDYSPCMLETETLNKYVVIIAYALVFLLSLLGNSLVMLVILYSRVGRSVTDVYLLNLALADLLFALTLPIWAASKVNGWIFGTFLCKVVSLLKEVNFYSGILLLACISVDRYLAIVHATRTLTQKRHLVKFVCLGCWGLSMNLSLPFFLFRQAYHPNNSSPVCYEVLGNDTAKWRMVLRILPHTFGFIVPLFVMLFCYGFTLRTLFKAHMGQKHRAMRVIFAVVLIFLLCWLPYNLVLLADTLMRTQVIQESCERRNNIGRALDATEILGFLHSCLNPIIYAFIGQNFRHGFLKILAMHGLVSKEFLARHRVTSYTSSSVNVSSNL
Assay Notes: β-arrestin recruitment test, U2OS hCXCR1 β-arrestin cells stimulated with CXCL8
Assay type: cell-based
Measurement Setup: inhibition of CXCL8 (10 nM) induced β-arrestin 2 recruitment; *9999 signifies not active
Expressed in nM, but write only the number.

Return value of IC50 for input Cc1ccc(C(Nc2c(Nc3cccc(C(=O)N(C)C)c3O)c(=O)c2=O)[C@@H]2CCCO2)o1 (stereo in doubt) , no commentary.
483

Return value of IC50 for input CN(C)C(=O)c1cccc(Nc2c(NC(c3ccccc3)C3CCCO3)c(=O)c2=O)c1O (stereo not shown) , no commentary.
1150

Return value of IC50 for input Cc1ccc(C(Nc2c(Nc3cccc(C(=O)N(C)CC(F)(F)F)c3O)c(=O)c2=O)C2CCCS2)o1 (single isomer, unassigned) [Example 8 (Diastereoisomer 2)] , no commentary.
85

Return value of IC50 for input COC(=O)CN(C)C(=O)c1cccc(Nc2c(N[C@@H](c3ccc(C)o3)C3CCCS3)c(=O)c2=O)c1O (single isomer, unassigned) , no commentary.
42

----------
Recorded IC50, one value per entry.
Test System: CXCR2 receptor (Homo sapiens (Human), UniProt P25025)
Sequence (P25025 whole entry): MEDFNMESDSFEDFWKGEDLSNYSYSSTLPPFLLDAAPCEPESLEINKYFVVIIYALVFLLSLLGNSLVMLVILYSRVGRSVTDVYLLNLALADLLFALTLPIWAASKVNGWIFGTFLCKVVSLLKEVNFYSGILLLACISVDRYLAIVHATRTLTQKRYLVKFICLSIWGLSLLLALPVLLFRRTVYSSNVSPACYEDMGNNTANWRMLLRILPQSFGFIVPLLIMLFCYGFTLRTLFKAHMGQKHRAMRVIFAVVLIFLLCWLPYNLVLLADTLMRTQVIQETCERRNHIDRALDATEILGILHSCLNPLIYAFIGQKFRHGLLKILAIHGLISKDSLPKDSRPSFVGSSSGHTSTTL
Assay Notes: β-arrestin recruitment test, PathHunter HEK293-CXCR2 cells stimulated with CXCL8
Assay type: cell-based
Measurement Setup: inhibition of CXCL8 (10 nM) induced β-arrestin 2 recruitment; *9999 signifies not active
Expressed in nM, but write only the number.

- Molecule: "Cc1ccc(C(Nc2c(Nc3cccc(C(=O)N(C)C)c3O)c(=O)c2=O)C2CCCS2)o1 (single isomer, unassigned) [Example 2 (Enantiomer 2 of diastereoisomer 2)]"
  IC50 (nM): 134
- Molecule: "Cc1ccc(C(Nc2c(Nc3cccc(C(=O)N(C)C)c3O)c(=O)c2=O)C2(C)CCCO2)o1 (single isomer, unassigned) [1 (diastereoisomer 2)]"
  IC50 (nM): 94
- Molecule: "Cc1ccc(C(Nc2c(Nc3cccn(C)c3=O)c(=O)c2=O)C2CCCS2)o1 (centres unmarked)"
  IC50 (nM): 44
- Molecule: "COC(=O)CN(C)C(=O)c1cccc(Nc2c(NC(c3ccc(C)o3)C3CCCS3)c(=O)c2=O)c1O (single isomer, unassigned) [Example 9 (Diastereoisomer 2)]"
  IC50 (nM): 80
- Molecule: "Cc1ccc(C(Nc2c(Nc3cccc(C(=O)N(C)C)c3O)c(=O)c2=O)[C@@H]2COC(C)(C)O2)o1 (single isomer, unassigned) [Example 14 (Diastereoisomer 2)]"
  IC50 (nM): 1250

With CXCR2 receptor (Homo sapiens (Human), UniProt P25025) as the test system, provide measured IC50 for this molecule: Cc1ccc(C(Nc2c(Nc3cccc(C(=O)N(C)C)c3O)c(=O)c2=O)[C@H]2CCCO2)o1 (stereo in doubt)
176

With CXCR2 receptor (Homo sapiens (Human), UniProt P25025) as the test system, provide measured IC50 for this molecule: Cc1ccc(C(Nc2c(Nc3cccc(C(=O)N4CCC[C@H]4C(=O)OC(C)C)c3F)c(=O)c2=O)C2CCCS2)o1 (some centres unmarked)
109

With CXCR2 receptor (Homo sapiens (Human), UniProt P25025) as the test system, provide measured IC50 for this molecule: Cc1ccc(C(Nc2c(Nc3cccc(C(=O)N(C)C)c3O)c(=O)c2=O)C2CCCS2)o1 (single isomer, unassigned) [Example 2 (Enantiomer 1 of diastereoisomer 2)]
15

With CXCR2 receptor (Homo sapiens (Human), UniProt P25025) as the test system, provide measured IC50 for this molecule: COC(=O)CN(C)C(=O)c1cccc(Nc2c(NC(c3ccc(C)o3)C3CCCS3)c(=O)c2=O)c1O (single isomer, unassigned) [9 (Diastereoisomer 1)]
153

With CXCR2 receptor (Homo sapiens (Human), UniProt P25025) as the test system, provide measured IC50 for this molecule: Cc1ccc(C(Nc2c(Nc3ccc(Cl)c(S(=O)(=O)N4CCN(C)CC4)c3O)c(=O)c2=O)C2CCCS2)o1 (single isomer, unassigned; (-))
17

With CXCR2 receptor (Homo sapiens (Human), UniProt P25025) as the test system, provide measured IC50 for this molecule: Cc1ccc(C(Nc2c(Nc3cccc(C(=O)N(C)C)c3O)c(=O)c2=O)C2(C)CCCO2)o1 (single isomer, unassigned) [Example 1 (Enantiomer 1 of diastereoisomer 2)]
10000
